# condition.context: in acetonitrile, 293.15 K
endpoint.label: solubility (mole fraction)
Numbers only.

So what's the measured solubility (mole fraction) for this one? `CCCc1nc(C(C)(C)O)c(C(=O)OCC)n1Cc1ccc(-c2ccccc2-c2nnnn2C(c2ccccc2)(c2ccccc2)c2ccccc2)cc1`
0.00044

====

# condition.context: in n-propanol, 298.15 K
endpoint.label: solubility (mole fraction)
Answers are plain numbers.

What value of solubility (mole fraction) has been recorded for this entry: `CCCc1nc(C(C)(C)O)c(C(=O)OCC)n1Cc1ccc(-c2ccccc2-c2nnnn2C(c2ccccc2)(c2ccccc2)c2ccccc2)cc1`
0.000298

====

# condition.context: in DMAc, 313.15 K
endpoint.label: solubility (mole fraction)
One number for each entry.

Fill in the blank: the reported solubility (mole fraction) of `CCCc1nc(C(C)(C)O)c(C(=O)OCC)n1Cc1ccc(-c2ccccc2-c2nnnn2C(c2ccccc2)(c2ccccc2)c2ccccc2)cc1` is ____.
0.0129

====

# condition.context: in n-propanol, 293.15 K
endpoint.label: solubility (mole fraction)

Fill blank: measured solubility (mole fraction) of the compound `CCCc1nc(C(C)(C)O)c(C(=O)OCC)n1Cc1ccc(-c2ccccc2-c2nnnn2C(c2ccccc2)(c2ccccc2)c2ccccc2)cc1` is ____.
0.000253

====

# condition.context: in ethyl acetate, 283.15 K
endpoint.label: solubility (mole fraction)

Look up solubility (mole fraction): `CCCc1nc(C(C)(C)O)c(C(=O)OCC)n1Cc1ccc(-c2ccccc2-c2nnnn2C(c2ccccc2)(c2ccccc2)c2ccccc2)cc1`
0.0021

====

# condition.context: in acetone, 313.15 K
endpoint.label: solubility (mole fraction)
Numbers only.

Query: solubility (mole fraction); subject: `CCCc1nc(C(C)(C)O)c(C(=O)OCC)n1Cc1ccc(-c2ccccc2-c2nnnn2C(c2ccccc2)(c2ccccc2)c2ccccc2)cc1`
0.0035

====

# condition.context: in acetone, 303.15 K
endpoint.label: solubility (mole fraction)
One number for each entry.

What does the data say about its solubility (mole fraction)? Entry: `CCCc1nc(C(C)(C)O)c(C(=O)OCC)n1Cc1ccc(-c2ccccc2-c2nnnn2C(c2ccccc2)(c2ccccc2)c2ccccc2)cc1`
0.00242

====

# condition.context: in DMF, 293.15 K
endpoint.label: solubility (mole fraction)
Numbers only.

What measured solubility (mole fraction) goes with `CCCc1nc(C(C)(C)O)c(C(=O)OCC)n1Cc1ccc(-c2ccccc2-c2nnnn2C(c2ccccc2)(c2ccccc2)c2ccccc2)cc1` ?
0.00229

====

# condition.context: in n-butanol, 283.15 K
endpoint.label: solubility (mole fraction)
Numbers only.

Please look up its solubility (mole fraction): `CCCc1nc(C(C)(C)O)c(C(=O)OCC)n1Cc1ccc(-c2ccccc2-c2nnnn2C(c2ccccc2)(c2ccccc2)c2ccccc2)cc1`
0.000211

====

# condition.context: in n-propanol, 288.15 K
endpoint.label: solubility (mole fraction)
Give bare numbers.

What does the data say about its solubility (mole fraction)? Entry: `CCCc1nc(C(C)(C)O)c(C(=O)OCC)n1Cc1ccc(-c2ccccc2-c2nnnn2C(c2ccccc2)(c2ccccc2)c2ccccc2)cc1`
0.000213

====

# condition.context: in DMAc, 298.15 K
endpoint.label: solubility (mole fraction)
Answers are plain numbers.

Which solubility (mole fraction) value is on record for `CCCc1nc(C(C)(C)O)c(C(=O)OCC)n1Cc1ccc(-c2ccccc2-c2nnnn2C(c2ccccc2)(c2ccccc2)c2ccccc2)cc1` ?
0.00872
